Every entry's value here was drawn from ChEMBL document CHEMBL5506055.

# target: NACHT, LRR and PYD domains-containing protein 3 (Mus musculus) (UniProt Q8R4B8)
# Sequence (Q8R4B8 whole entry, the tested form may be a part): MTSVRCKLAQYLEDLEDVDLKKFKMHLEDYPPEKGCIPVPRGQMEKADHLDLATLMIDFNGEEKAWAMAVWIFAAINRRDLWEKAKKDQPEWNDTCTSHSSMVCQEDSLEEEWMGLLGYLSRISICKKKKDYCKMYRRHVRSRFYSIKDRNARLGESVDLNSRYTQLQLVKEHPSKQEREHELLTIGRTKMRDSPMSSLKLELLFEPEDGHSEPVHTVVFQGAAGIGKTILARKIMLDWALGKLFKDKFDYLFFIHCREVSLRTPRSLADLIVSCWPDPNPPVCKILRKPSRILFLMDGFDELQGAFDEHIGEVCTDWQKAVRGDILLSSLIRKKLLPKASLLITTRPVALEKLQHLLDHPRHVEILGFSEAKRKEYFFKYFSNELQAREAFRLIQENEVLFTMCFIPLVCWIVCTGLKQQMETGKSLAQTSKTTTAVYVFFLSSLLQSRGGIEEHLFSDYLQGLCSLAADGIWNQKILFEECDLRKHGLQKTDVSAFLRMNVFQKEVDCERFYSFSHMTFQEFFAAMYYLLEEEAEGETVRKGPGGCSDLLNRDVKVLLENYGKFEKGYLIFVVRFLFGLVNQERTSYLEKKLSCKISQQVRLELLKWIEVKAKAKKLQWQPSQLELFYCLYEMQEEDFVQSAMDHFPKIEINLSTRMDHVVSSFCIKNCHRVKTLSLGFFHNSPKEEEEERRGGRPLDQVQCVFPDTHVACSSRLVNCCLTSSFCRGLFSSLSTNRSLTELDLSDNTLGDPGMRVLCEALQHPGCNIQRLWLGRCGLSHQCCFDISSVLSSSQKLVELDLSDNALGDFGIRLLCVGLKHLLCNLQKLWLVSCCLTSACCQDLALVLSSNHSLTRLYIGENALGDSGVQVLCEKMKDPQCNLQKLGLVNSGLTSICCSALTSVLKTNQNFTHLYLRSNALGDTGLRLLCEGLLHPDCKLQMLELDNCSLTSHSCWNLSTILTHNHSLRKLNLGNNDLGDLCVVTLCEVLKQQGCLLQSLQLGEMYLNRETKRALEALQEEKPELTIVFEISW
# assayProcedure: Inhibition of NLRP3 inflammasome activation in LPS/ATP-induced C57BL/6 mouse BMDMs assessed as reduction in IL-1beta secretion at 500 nM preincubated with LPS for 4 hrs followed by compound addition for 30 mins and further stimulated with ATP for 30 mins by ELISA relative to control
# Format: cell-based
# runParameters: BMDM, time 1.0 hrs
readoutType: inhibition (%)

Solved cases (3 shown):
| smilesString | inhibition [%] |
| --- | --- |
| C=CCNC(=O)CCO[C@@]12OC[C@]3(C=CCC(C)(C)[C@H]3[C@@H]1O)[C@@H]1CC[C@H]3C(=C)C(=O)[C@]12[C@@H]3O | 93.7 |
| C=C1C(=O)[C@]23[C@H](O)[C@H]1CC[C@H]2[C@]12C=CCC(C)(C)[C@H]1[C@H](O)[C@@]3(OCCC(=O)NC)OC2 | 76.7 |
| C=C1C(=O)[C@]23[C@H](O)[C@H]1CC[C@H]2[C@]12C=CCC(C)(C)[C@H]1[C@H](O)[C@@]3(OCCC(=O)NC1CC1)OC2 | 65.1 |

A: C=C1C(=O)[C@]23[C@H](O)[C@H]1CC[C@H]2[C@]12C=CCC(C)(C)[C@H]1[C@H](O)[C@@]3(OCc1ccc3ccccc3c1)OC2
B: C=C1C(=O)[C@]23[C@H](O)[C@H]1CC[C@H]2[C@]12C=CCC(C)(C)[C@H]1[C@H](O)[C@@]3(OCC(=O)O)OC2
Which of the two items, A and B , has the greater recorded inhibition? Pick one and reply with its label. A

A: C=C1C(=O)[C@]23[C@H](O)[C@H]1CC[C@H]2[C@]12C=CCC(C)(C)[C@H]1[C@H](O)[C@@]3(OCCCCCc1ccccc1)OC2
B: C=C1C(=O)[C@]23[C@H](O)[C@H]1CC[C@H]2[C@]12C=CCC(C)(C)[C@H]1[C@H](O)[C@@]3(OCc1cncs1)OC2
Select the item whose inhibition value is smaller, choosing between A and B . Give the chosen item's label as your response. A
